Items are presented alongside their recorded Activity.
assay-details: Nitric oxide release in PBS at pH 7.4 in 37 degC after 1.5 hrs
Type: functional
Design: concentration or dose not given beside the values
value-kind: Activity (%)

> print(dat)
                         compound.structure  reading
1  COc1ccc(/C(=C\c2ccc(S(C)(=O)=O)cc2)C(=O)OCCN(C)/[N+]([O-])=N/OCOC(C)=O)cc1      3.9
2  CS(=O)(=O)c1ccc(/C=C(/C(=O)OCCO[N+](=O)[O-])c2ccc(F)cc2)cc1      3.3
3  CC(=O)OCO/N=[N+](\[O-])N(C)CCOC(=O)/C(=C/c1ccc(S(C)(=O)=O)cc1)c1ccc(Br)cc1      3.5
4  CS(=O)(=O)c1ccc(/C=C(/C(=O)OCCO[N+](=O)[O-])c2ccccc2)cc1        3
